Taken from PubChem BioAssay AID2060883.

Test system: 843782-103-R-J1-PDC complex spheroid viability;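 further: viability read after seven days of compound exposure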
Experiment: Anticancer human tumor 843782-103-R-J1-PDC patient-derived lung adenocarcinoma cell line growth inhibition [RAS]; active means viability on the fitted dose curve at most 10% of control; inactive means the rest
Conditions: second compound 0.003 µM; first compound 0.1 µM
Select the correct class. Options are True = active, False = inactive and nothing else.

Below are worked cases with known answers.
# compound, category_label
measured = [
    ("C[C@@H](NC(=O)c1ncnc(N)c1Cl)c1ncc(C(=O)Nc2cc(C(F)(F)F)c(Cl)cn2)s1 + CCn1c(-c2cc(N3CCN(C)CC3)cnc2C(C)OC)c2c3cc(ccc31)-c1csc(n1)CC(NC(=O)C1CC1C)C(=O)N1CCCC(N1)C(=O)OCC(C)(C)C2", "False"),
    ("CCC(CC)c1cc(NC2CCC(N)C2)n2nccc2n1 (stereo not given) + CCn1c(-c2cc(N3CCN(C)CC3)cnc2C(C)OC)c2c3cc(ccc31)-c1csc(n1)CC(NC(=O)C1CC1C)C(=O)N1CCCC(N1)C(=O)OCC(C)(C)C2", "False"),
    ("CCN1CCN(Cc2ccc(Nc3ncc(F)c(-c4cc(F)c5nc(C)n(C(C)C)c5c4)n3)nc2)CC1 + CCn1c(-c2cccnc2C(C)OC)c2c3cc(ccc31)N1CCOC(CC(NC(=O)C(C(C)C)N(C)C(=O)C3(F)CCN(C(=O)C#CC(C)(C)N(C)C)CC3)C(=O)N3CCCC(N3)C(=O)OCC(C)(C)C2)C1", "False"),
    ("C=CC(=O)Nc1cc(Nc2nccc(-c3cn(C)c4ccccc34)n2)c(OC)cc1N(C)CCN(C)C + CCn1c(-c2cccnc2C(C)OC)c2c3cc(ccc31)N1CCOC(CC(NC(=O)C(C(C)C)N(C)C(=O)C3(F)CCN(C(=O)C#CC(C)(C)N(C)C)CC3)C(=O)N3CCCC(N3)C(=O)OCC(C)(C)C2)C1", "False"),
    ("Cc1nc(N2CCC3(CC2)COC(C)C3N)c(CO)nc1Sc1ccnc(N)c1Cl (stereo not given) + CCn1c(-c2cc(N3CCN(C)CC3)cnc2C(C)OC)c2c3cc(ccc31)-c1csc(n1)CC(NC(=O)C1CC1C)C(=O)N1CCCC(N1)C(=O)OCC(C)(C)C2", "False"),
]

*Q* # fetch the recorded call for CC(=O)OC12COC1CC(O)C1(C)C(=O)C(O)C3=C(C)C(OC(=O)C(O)C(NC(=O)OC(C)(C)C)c4ccccc4)CC(O)(C(OC(=O)c4ccccc4)C21)C3(C)C (stereo not given) + CCn1c(-c2cccnc2C(C)OC)c2c3cc(ccc31)N1CCOC(CC(NC(=O)C(C(C)C)N(C)C(=O)C3(F)CCN(C(=O)C#CC(C)(C)N(C)C)CC3)C(=O)N3CCCC(N3)C(=O)OCC(C)(C)C2)C1 here
*A* True

*Q* Try this compound next: CC(C)NCC(C(=O)N1CCN(c2ncnc3c2C(C)CC3O)CC1)c1ccc(Cl)cc1 (stereo not given) + CCn1c(-c2cccnc2C(C)OC)c2c3cc(ccc31)N1CCOC(CC(NC(=O)C(C(C)C)N(C)C(=O)C3(F)CCN(C(=O)C#CC(C)(C)N(C)C)CC3)C(=O)N3CCCC(N3)C(=O)OCC(C)(C)C2)C1
*A* False

*Q* Try this compound next: NC1c2ccccc2OC12CCN(c1cnc3c(N4CCCc5ncccc54)n[nH]c3n1)CC2 (stereo not given) + CCn1c(-c2cccnc2C(C)OC)c2c3cc(ccc31)N1CCOC(CC(NC(=O)C(C(C)C)N(C)C(=O)C3(F)CCN(C(=O)C#CC(C)(C)N(C)C)CC3)C(=O)N3CCCC(N3)C(=O)OCC(C)(C)C2)C1
*A* False

*Q* Try this compound next: NC1c2ccccc2OC12CCN(c1cnc3c(N4CCCc5ncccc54)n[nH]c3n1)CC2 (stereo not given) + CCn1c(-c2cc(N3CCN(C)CC3)cnc2C(C)OC)c2c3cc(ccc31)-c1csc(n1)CC(NC(=O)C1CC1C)C(=O)N1CCCC(N1)C(=O)OCC(C)(C)C2
*A* False

*Q* Try this compound next: Nc1ccn(C2OC(CO)C(O)C2(F)F)c(=O)n1 (stereo not given) + CCn1c(-c2cc(N3CCN(C)CC3)cnc2C(C)OC)c2c3cc(ccc31)-c1csc(n1)CC(NC(=O)C1CC1C)C(=O)N1CCCC(N1)C(=O)OCC(C)(C)C2
*A* True
